Numbers sourced from patent US20250361210A1.

assayed-target: UniProt P16473
Sequence (P16473 21-764): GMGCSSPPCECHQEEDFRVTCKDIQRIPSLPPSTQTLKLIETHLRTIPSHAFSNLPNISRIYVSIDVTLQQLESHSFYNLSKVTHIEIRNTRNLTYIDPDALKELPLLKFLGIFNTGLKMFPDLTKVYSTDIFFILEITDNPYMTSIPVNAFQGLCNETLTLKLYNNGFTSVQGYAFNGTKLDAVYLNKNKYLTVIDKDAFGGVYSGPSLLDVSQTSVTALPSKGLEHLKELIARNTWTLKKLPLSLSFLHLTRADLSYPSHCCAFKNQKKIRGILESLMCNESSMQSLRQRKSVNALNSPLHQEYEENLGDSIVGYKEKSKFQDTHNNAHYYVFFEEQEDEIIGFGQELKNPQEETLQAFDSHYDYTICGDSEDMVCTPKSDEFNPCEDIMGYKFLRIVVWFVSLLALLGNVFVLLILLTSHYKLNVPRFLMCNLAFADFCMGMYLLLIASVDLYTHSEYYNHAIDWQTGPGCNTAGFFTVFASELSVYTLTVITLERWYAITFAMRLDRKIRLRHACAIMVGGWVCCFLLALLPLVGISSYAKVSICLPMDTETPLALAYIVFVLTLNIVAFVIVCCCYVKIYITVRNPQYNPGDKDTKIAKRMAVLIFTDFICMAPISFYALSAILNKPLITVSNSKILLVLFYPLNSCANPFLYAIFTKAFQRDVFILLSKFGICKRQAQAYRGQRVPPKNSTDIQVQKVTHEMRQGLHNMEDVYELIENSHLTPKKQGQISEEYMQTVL
experimental-details: Antagonist activity using TSH-induced cAMP production in human TSHR-stably expressing CHO cells
assay-setup: human TSH 50 ng/mL
reported-metric: IC50

>>> observed("Cc1ccc2c(c1Oc1cc(F)ccc1C(F)F)N(C)C(=O)[C@H](NC(N)=O)C2 [Example 70]")
"< 500 nM"

// for each molecule in input: emit IC50
1. CN1C(=O)C(NC(N)=O)Cc2cccc(Oc3cccc(Cl)c3)c21 (centres unmarked) [Example 6]
2. CN1C(=O)[C@H](NC(N)=O)Cc2ccc(Cl)c(Oc3cc(F)ccc3F)c21 [Example 69]
3. CN1C(=O)[C@H](NC(N)=O)Cc2cccc(Oc3ccccc3C(F)(F)F)c21 [Example 10]

Reply text:
1: 500 to 3000 nM; 2: < 500 nM; 3: < 500 nM
